Entries and their IC50
# System: CEM cells HIV-1 protection, formazan growth assay
# procedure_text: NCI AIDS Antiviral Assay
# measurement_parameters: measured here: growth of uninfected CEM cells

# compound, assayed_system, IC50
data = [
    ("O=S(=O)(O)c1ccc(O)c2ncc(Cl)cc12", "CEM cells HIV-1 protection, formazan growth assay", "> 200 µM"),
    ("CC1CC(OP(=O)(OCc2ccccc2)OCc2ccccc2)[C@@H](OCc2ccccc2)C(OCc2ccccc2)C1OCc1ccccc1 (some centres undefined)", "CEM cells HIV-1 protection, formazan growth assay", "> 100 µM"),
    ("Cn1c(=O)nc2n(CCO)ccnc-2c1=O", "CEM cells HIV-1 protection, formazan growth assay", "> 100 µM"),
    ("Cc1ccc2c(c1)-c1c3c(nn1-c1ccccc1)-c1ccccc1SC3O2 (centres undefined)", "CEM cells HIV-1 protection, formazan growth assay", "> 3.89 µM"),
]

====

Entries and their IC50
# System: CEM cells HIV-1 protection, formazan growth assay
# procedure_text: NCI AIDS Antiviral Assay
# measurement_parameters: measured here: growth of uninfected CEM cells
attribute_measured: IC50

# molecule, attribute_measured, result
data = [
    ("O=c1c2cc(S(=O)(=O)Nc3c(Cl)cccc3Cl)ccc2ncn1NS(=O)(=O)c1ccc2ccccc2c1", "IC50", "37.2 µM"),
    ("O=c1/c(=C/c2ccco2)sc2nc3ccccc3n12", "IC50", "> 3.89 µM"),
    ("O=C(/C=C/c1cccc([N+](=O)[O-])c1)c1ccccc1", "IC50", "11.5 µM"),
    ("COc1ccc(Cc2cc(Cc3ccc(OC)cc3)cc(Cc3ccc(OC)cc3)c2)cc1", "IC50", "> 100 µM"),
    ("C=C1C(=O)OC2CC(C)C3C=CC(=O)C3CC12 (stereo unspecified)", "IC50", "0.537 µM"),
    ("CS(=O)(=O)Sc1ccccc1C(=O)O", "IC50", "> 1070 µM"),
    ("Cc1cn(C2CCC3(CO)CC23)c(=O)[nH]c1=O (stereo unspecified)", "IC50", "> 50.1 µM"),
    ("Cc1nnc(SCC2=C(C(=O)O)N3C(=O)C(NC(=O)Cn4cnnn4)C3SC2)s1 (stereo unspecified)", "IC50", "> 200 µM"),
    ("Cc1noc(C(F)(F)Sc2ncccn2)n1", "IC50", "> 200 µM"),
    ("CC1(C)CNC[C@]2(C)OCCCO[C@@]3(C)CNCC(C)(C)NC(=O)[C@](C)(CNCC(C)(C)NC3=O)OCCCO[C@](C)(CNCC(C)(C)NC2=O)C(=O)N1", "IC50", "> 200 µM"),
    ("NC(=S)N/N=C/c1cc2c3c(c1)CCCN3CCC2", "IC50", "> 200 µM"),
]

====

# Test system: CEM cells HIV-1 protection, formazan growth assay
# procedure_text: NCI AIDS Antiviral Assay
# measurement_parameters: measured here: growth of uninfected CEM cells
pIC50: −log10 of the molar value.
Entries and their pIC50
attribute_measured: pIC50

# molecule, assayed_system, result
measured = [
    ("Nc1nc(N)nc(-c2ccccc2-c2nc(N)nc(N)n2)n1", "CEM cells HIV-1 protection, formazan growth assay", "< 3.70"),
    ("O=[N+]([O-])c1cccc(C2=NOC(C3CCCCC3)C2)c1 (stereo not given)", "CEM cells HIV-1 protection, formazan growth assay", "< 4.44"),
    ("C1CN2C(=N1)N1CCN=C1N1CCN=C21", "CEM cells HIV-1 protection, formazan growth assay", "< 3.76"),
    ("COC(=O)C12C3C4C5C3(C#N)C1C5(C(=O)OC)C42C(=O)N(C(C)C)C(C)C (stereo not given)", "CEM cells HIV-1 protection, formazan growth assay", "< 4.01"),
    ("CC1(C)CC2=C(CC3C4C=C5CC(C)(C)OC(=O)C5(C4)C23)C(=O)O1 (stereo not given)", "CEM cells HIV-1 protection, formazan growth assay", "< 4.06"),
    ("CC(=O)OC(Cn1cncn1)(Cn1cncn1)c1ccc(Cl)cc1Cl", "CEM cells HIV-1 protection, formazan growth assay", "< 3.70"),
    ("S=C1N(/N=C/c2c3ccccc3cc3ccccc23)C(=Nc2ccccc2)C(=Nc2ccccc2)N1c1ccccc1", "CEM cells HIV-1 protection, formazan growth assay", "< 3.70"),
    ("COC(=O)[C@H]1CO[C@@H](C(C)(C)C)N1C(=O)N1C=CC(=O)C[C@@H]1C", "CEM cells HIV-1 protection, formazan growth assay", "< 3.70"),
    ("O=C1OC(=O)c2c1ccc1ccccc21", "CEM cells HIV-1 protection, formazan growth assay", "< 4.30"),
    ("CCOC(=O)C1(CO)CSCCSC1", "CEM cells HIV-1 protection, formazan growth assay", "< 2.98"),
    ("Cc1cc(C)nc(NC(=O)Nc2cc(Cl)ccc2C)c1", "CEM cells HIV-1 protection, formazan growth assay", "< 3.70"),
    ("C=CCOC(=O)Cn1ccc(=O)[nH]c1=O", "CEM cells HIV-1 protection, formazan growth assay", "< 3.70"),
    ("CCOC(=O)C(=O)C(=O)NN(C)C1=NCCN1", "CEM cells HIV-1 protection, formazan growth assay", "< 3.70"),
    ("C=CCCC(CCC=C)(C(=O)O)C(=O)O", "CEM cells HIV-1 protection, formazan growth assay", "< 2.93"),
    ("O=C(N=C1SCCN1C(=O)C(C(F)(F)F)C(F)(F)F)C(C(F)(F)F)C(F)(F)F", "CEM cells HIV-1 protection, formazan growth assay", "< 3.70"),
    ("COC(=O)[C@]12CSCN1C(=O)C(C(C)=O)=NN2C(=O)[C@](OC)(c1ccccc1)C(F)(F)F", "CEM cells HIV-1 protection, formazan growth assay", "< 3.70"),
    ("N#Cc1nc(CN2C(=O)c3ccccc3C2=O)oc1N", "CEM cells HIV-1 protection, formazan growth assay", "< 3.70"),
    ("Cc1cc(CS(=O)(=O)/C=C/c2ccccc2[N+](=O)[O-])c(CS(=O)(=O)/C=C/c2ccccc2[N+](=O)[O-])cc1C", "CEM cells HIV-1 protection, formazan growth assay", "< 4.94"),
    ("c1ccc(N2N=NC3C4CC(C32)C2C4N=NN2c2ccccc2)cc1 (stereo not given)", "CEM cells HIV-1 protection, formazan growth assay", "< 3.70"),
    ("CCOC1CC(C)N(C(=O)c2ccccc2)O1 (stereo not given)", "CEM cells HIV-1 protection, formazan growth assay", "< 3.70"),
]

====

# System: CEM cells HIV-1 protection, formazan growth assay
# procedure_text: NCI AIDS Antiviral Assay
# measurement_parameters: measured here: growth of uninfected CEM cells
pIC50: −log10 of the molar value.

# molecule, reading_qualifier, pIC50
rows = [
    ("Cc1nc(N)sc1C(=O)Nc1ncn[nH]1", "=", 3.93),
    ("CC(=O)O[C@H]1[C@@H]2[C@@H]3[C@@H](C[C@H]1C)[C@@H](C)CO[C@@]1(C)CC/C=C(/C)C[C@@H]2O[C@@H]31", "<", 4.00),
    ("C/C(=N/NC(=S)Nc1ccc(C)cc1)c1ccccn1", "=", 7.10),
    ("CC(C)CNC(=O)Cn1c2c(c3ccccc31)CCCC2", "=", 4.09),
    ("Cc1occc1C(=S)Nc1ccc(Cl)c(C(=O)OCC(C)C)c1", "=", 4.73),
    ("Cc1cn(C2CC3OP(=O)(OCc4ccccc4)OCC3O2)c(=O)[nH]c1=O (stereo not drawn)", "<", 5.44),
    ("Cc1cc([N+](=O)[O-])c2c(c1)P(=O)(O)c1cc(C)cc([N+](=O)[O-])c1O2", "<", 3.70),
    ("CCOC(=O)C(CSSCC(NC(C)=O)C(=O)OCC)NC(C)=O (stereo not drawn)", "=", 3.85),
]

====

# Test system: CEM cells HIV-1 protection, formazan growth assay
# procedure_text: NCI AIDS Antiviral Assay
# measurement_parameters: measured here: growth of uninfected CEM cells
pIC50: −log10 of the molar value.
Entries and their pIC50

# compound, pIC50
data = [
    ("O=C(O)CCCCC1CCSS1 (stereo not given)", "< 3.70"),
    ("CN(C)c1ccc(/C=C\\C#N)cc1", "< 4.01"),
    ("Cc1ccccc1C1CC(c2ccccc2)=NO1 (stereo not given)", "< 4.24"),
    ("COc1ccc2cc(C(=O)Nc3ccc(O)c(C(=O)O)c3)ccc2c1OC", "< 3.70"),
    ("CCC(=O)SC1CC2=CC(=O)CCC2(C)C2CCC3(C)C(O)CCC3C12 (stereo not given)", "< 3.70"),
    ("CN(C)c1ccc(/C=C(\\NC(=O)c2ccccc2)C(=O)Nc2ccccc2C(=O)NN2C(=O)CSC2c2ccc(N(C)C)cc2)cc1 (stereo not given)", "< 4.30"),
    ("COC1C(=[N+]=[N-])C(=O)NC(=O)N1C1OC(COC(c2ccccc2)(c2ccccc2)c2ccccc2)C(O)C1O (stereo not given)", "< 4.74"),
    ("Cc1cccc(N=C2NC(=O)C(CC(=O)Nc3ccc(C)cc3C)S2)c1 (stereo not given)", "< 4.57"),
    ("CC1=[N+]([O-])C(C)(C)N(N=O)C1(C)C", "< 3.70"),
    ("CCCCCCCC1(N=[N+]=[N-])C(=O)Nc2ccccc2C1=O (stereo not given)", 4.70),
    ("CCN(C(C)=O)c1cnc(/C=N/NC(N)=S)c2ccccc12", 5.59),
    ("COC(=O)[C@]12CSC[C@H]1C[C@H](c1cccc3ccccc13)N2", "< 3.70"),
    ("CCCCN(CCCC)CC(C(C)=O)C(c1ccccc1)c1c(O)c2ccccc2oc1=O (stereo not given)", "< 4.38"),
    ("N#CCCN(CCC#N)c1ccc(/C=C2\\N=C(c3ccccc3)N(NC(=O)c3ccncc3)C2=O)cc1", 3.72),
    ("N#CC(C#N)=Cc1ccccc1[N+](=O)[O-]", 4.82),
]
